Where these numbers come from: the antibiotic and cytotoxicity screens of Wong et al. (2023)

# System: HepG2
# assay_comment: cytotoxicity call (relative viability < 0.9)
# condition_parameters: 10 µM
Among all 39,000 compounds or so, about 3,300 (8.5%) were called active. Only a selection was taken, and actives are over-represented in it overall.
Outcomes: 1 = active, 0 = inactive

| smiles | assigned_label |
| --- | --- |
| C[C@@H]1CN([C@@H](C)CO)C(=O)Cc2cc(NC(=O)c3ccncc3)ccc2O[C@@H]1CN(C)S(=O)(=O)c1cccs1 | 1 |
| C[C@H](CO)N1C[C@H](C)[C@H](CN(C)S(=O)(=O)c2ccccc2)Oc2ccc(NC(=O)c3ccncc3)cc2CC1=O | 0 |
| C[C@H]1CN([C@@H](C)CO)C(=O)Cc2cc(NC(=O)c3ccncc3)ccc2O[C@@H]1CN(C)S(=O)(=O)c1cccs1 | 0 |
| CC(C)NC(=O)Nc1ccc2c(c1)CC(=O)N([C@@H](C)CO)C[C@@H](C)[C@@H](CN(C)S(=O)(=O)c1cccs1)O2 | 1 |
